Test: Plasma and tissue concentration in high fat diet mice, day 36
Type: in vivo, mice (Mus musculus—C57BL-6)
Conditions: male, C57BL-6, mouse, adipose tissue (abdominal fat), oral, 30 mg/kg, 4 hr, read-out: Adipose tissue (abdominal fat)
Quantity: concentration at 4 h (ng/mL)
Return type: number; implicit unit ng/mL.

Recall and state the measured concentration at 4 h for `O=c1[nH]c(-c2c[nH]c3cc(F)c(-c4ccc(C5(O)CCC5)cc4)c(F)c23)no1` .
38

* * *

Assay: Plasma and tissue concentration in high fat diet mice, day 36
Type: in vivo, mice (Mus musculus—C57BL-6)
Details: male, C57BL-6, mouse, plasma, oral, 50 mg/kg, 3 hr, read-out: Plasma
Protocol: Doses were 30 and 50 mg/kg and administered orally (p.o.) once a day (QD) for 36 days. Dose volume was 10 mL/kg, which was administered to male, 18-22-week-old mice (Mus musculus—C57BL-6) with body weight between 18-19.4 g each. Mice were grouped into 3 groups of 10. […] Plasma lipid profile: On day 34 total cholesterol levels, triglyceride, HDL, and LDL levels were detected. […] Cumulative food consumption was measured daily starting from day 1 onwards up to end of the study period. […]
Quantity: concentration at 3 h (ng/mL)
Return type: number; implicit unit ng/mL.

Recall and state the measured concentration at 3 h for `O=c1[nH]c(-c2c[nH]c3cc(F)c(-c4ccc(C5(O)CCC5)cc4)c(F)c23)no1` .
199

* * *

Experiment: Plasma and tissue concentration in high fat diet mice, day 36
Format: in vivo, mice (Mus musculus—C57BL-6)
Conditions: male, C57BL-6, mouse, jejunum, oral, 50 mg/kg, 3 hr, read-out: Jejunum
Quantity: concentration at 3 h (µg/mL)
Return type: number; implicit unit µg/mL.

Recall and state the measured concentration at 3 h for `O=c1[nH]c(-c2c[nH]c3cc(F)c(-c4ccc(C5(O)CCC5)cc4)c(F)c23)no1` .
0.165

* * *

Assay: Plasma and tissue concentration in high fat diet mice, day 36
Type: in vivo, mice (Mus musculus—C57BL-6)
Details: male, C57BL-6, mouse, adipose tissue (abdominal fat), oral, 30 mg/kg, 3 hr, read-out: Adipose tissue (abdominal fat)
Quantity: concentration at 3 h (ng/mL)
Return type: number; implicit unit ng/mL.

Recall and state the measured concentration at 3 h for O=c1[nH]c(-c2c[nH]c3cc(F)c(-c4ccc(C5(O)CCC5)cc4)c(F)c23)no1 [Compound I-11] .
23
